Cited source for all entries: ChEMBL document CHEMBL6109144

biological target: Gastric inhibitory polypeptide receptor (Homo sapiens, UniProt P48546); assay: Agonist activity at N-terminal HA-tagged human GIPR expressed in CHO cells co-transfected with pcDNA3.0 assessed as effect on cAMP accumulation incubated for 30 mins by microplate reader analysis; type: functional, cell-based
Sequence (P48546 whole entry): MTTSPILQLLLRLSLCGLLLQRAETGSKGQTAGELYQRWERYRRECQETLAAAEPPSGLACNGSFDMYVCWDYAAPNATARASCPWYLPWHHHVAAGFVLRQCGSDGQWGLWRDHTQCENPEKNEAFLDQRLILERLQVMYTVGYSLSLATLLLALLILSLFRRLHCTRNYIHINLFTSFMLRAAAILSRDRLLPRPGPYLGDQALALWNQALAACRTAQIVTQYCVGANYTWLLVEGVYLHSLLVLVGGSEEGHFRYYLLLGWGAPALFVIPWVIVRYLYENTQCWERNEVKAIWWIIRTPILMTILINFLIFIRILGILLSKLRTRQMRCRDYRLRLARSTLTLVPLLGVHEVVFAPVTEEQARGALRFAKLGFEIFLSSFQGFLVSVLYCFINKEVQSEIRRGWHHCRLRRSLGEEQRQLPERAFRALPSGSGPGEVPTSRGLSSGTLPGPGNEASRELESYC
READOUT LABEL: EC50

# input Form field - read-out: EC50; system: Gastric inhibitory polypeptide receptor (Homo sapiens, UniProt P48546); submitted item: `O=C(O)c1ccc2nc(CN3CC=C(c4cccc(OCc5ccc(C6CC(F)(F)C6)cc5F)n4)CC3)n(C[C@@H]3CCO3)c2n1`
# output > 20 µM

###

experiment: Half life in Sprague-Dawley rat at 5 mg/kg, po measured up to 24 hrs by LC-MS/MS analysis; format: ADME, organism-based; settings: in vivo
// NB: equality with 200 min counts as no (0); only half-life strictly below is yes (1)

- CHEMICAL SMILES: "N#Cc1ccc(COc2cccc(C3CCN(Cc4nc5ccc(C(=O)O)cc5n4C[C@@H]4CCO4)CC3)n2)c(F)c1"
  LABEL CLASS: "no (0)"
- CHEMICAL SMILES: "O=C(O)c1ccc2nc(CN3CCC(Oc4cccc(COc5ccc6cnn(CC(F)F)c6c5F)n4)CC3)n(C[C@@H]3CCO3)c2n1"
  LABEL CLASS: "yes (1)"
- CHEMICAL SMILES: "COc1cc(C(=O)O)cc2c1nc(CN1CC=C(c3cccc(OCc4ccc(C5CC(F)(F)C5)cc4F)n3)CC1)n2C[C@@H]1CCO1"
  LABEL CLASS: "yes (1)"
- CHEMICAL SMILES: "O=C(O)c1ccc2nc(Cc3ccc(-c4cccc(OCc5ccc(C6CC(F)(F)C6)cc5F)n4)cc3F)n(C[C@@H]3CCO3)c2c1"
  LABEL CLASS: "yes (1)"

# input Does the reported half-life of `O=C(O)c1ccc2nc(CN3CC=C(c4cccc(OCc5ccc(C6CC(F)(F)C6)cc5F)n4)CC3)n(C[C@@H]3CCO3)c2c1` stay below 200 min?
# output no (0)

###

target: Glucagon-like peptide 2 receptor (Homo sapiens, UniProt O95838); test: Agonist activity at N-terminal HA-tagged human GLP-2R expressed in CHO cells co-transfected with pcDNA3.0 assessed as effect on cAMP accumulation incubated for 30 mins by microplate reader analysis
Sequence (O95838 whole entry): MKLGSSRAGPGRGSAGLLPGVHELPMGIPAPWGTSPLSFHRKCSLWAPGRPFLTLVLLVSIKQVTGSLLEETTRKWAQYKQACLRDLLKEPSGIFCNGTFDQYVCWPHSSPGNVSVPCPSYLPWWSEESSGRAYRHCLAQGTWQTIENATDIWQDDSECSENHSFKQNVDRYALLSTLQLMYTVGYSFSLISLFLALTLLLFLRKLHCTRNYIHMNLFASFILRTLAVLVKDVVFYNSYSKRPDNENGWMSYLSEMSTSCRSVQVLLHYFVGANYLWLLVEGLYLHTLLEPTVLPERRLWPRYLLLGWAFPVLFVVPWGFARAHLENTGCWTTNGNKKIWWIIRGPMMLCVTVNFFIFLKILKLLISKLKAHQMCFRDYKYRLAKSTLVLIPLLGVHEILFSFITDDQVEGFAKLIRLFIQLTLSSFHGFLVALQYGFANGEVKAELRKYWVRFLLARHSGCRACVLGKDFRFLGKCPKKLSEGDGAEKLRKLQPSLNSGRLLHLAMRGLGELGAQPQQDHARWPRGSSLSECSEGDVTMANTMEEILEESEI
pEC50: −log10 of the molar value.
READOUT LABEL: pEC50

# input # get_value(readout='pEC50', item= `O=C(O)c1ccc2nc(CN3CC=C(c4cccc(OCc5ccc(C6CC(F)(F)C6)cc5F)n4)CC3)n(C[C@@H]3CCO3)c2n1` )
# output < 4.70

###

For each of the compounds below, state its log10 of EC50.
target: UniProt:P43220; test: Agonist activity at N-terminal hemagglutinin-tagged human GLP-1R expressed in CHO cells co-transfected with pcDNA3.0 assessed as increase in intracellular cAMP accumulation incubated for 30 mins by microplate reader analysis; format: functional, cell-based
Sequence (P43220 whole entry): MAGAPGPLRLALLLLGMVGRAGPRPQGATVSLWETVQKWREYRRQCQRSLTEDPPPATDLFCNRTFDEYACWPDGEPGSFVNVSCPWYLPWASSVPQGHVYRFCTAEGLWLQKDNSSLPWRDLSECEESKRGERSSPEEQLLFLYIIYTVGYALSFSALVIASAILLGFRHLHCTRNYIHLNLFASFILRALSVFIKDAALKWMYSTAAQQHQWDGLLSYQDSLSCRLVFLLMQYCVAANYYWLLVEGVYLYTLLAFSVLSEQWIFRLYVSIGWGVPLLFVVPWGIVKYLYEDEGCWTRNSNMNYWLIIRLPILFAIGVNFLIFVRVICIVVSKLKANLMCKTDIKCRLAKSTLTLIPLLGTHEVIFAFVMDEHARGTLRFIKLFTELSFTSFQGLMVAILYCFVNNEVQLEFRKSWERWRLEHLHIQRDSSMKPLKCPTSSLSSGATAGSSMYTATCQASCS
Reminder: these figures are log10 of reported EC50, in nM before transformation.

- CHEMICAL SMILES: "O=C(O)c1ccc2nc(CN3CCC(Oc4ccnc(Cc5ccc(Cl)c6ccoc56)n4)CC3)n(C[C@@H]3CCO3)c2n1"
  READOUT LABEL: "log10 of EC50"
  MEASURED: -0.47

Each of the following entries comes with a recorded value; kindly state log10 of EC50 for each.
1. COc1cc2c(Cl)ccc(OCc3cccc(OC4CCN(Cc5nc6ccc(C(=O)O)cc6n5C[C@@H]5CCO5)CC4)n3)c2o1
2. O=C(O)c1cc2c(nc(CN3CCC(Oc4cccc(Cc5ccc(-c6ccn(C(F)F)n6)cc5)n4)CC3)n2C[C@@H]2CCO2)s1
3. N#Cc1ccc(Cc2cccc(OC3CCN(Cc4nc5sc(C(=O)O)cc5n4C[C@@H]4CCO4)CC3)n2)cc1
4. O=C(O)c1ccc2nc(CN3CCC(Oc4cccc(Cc5ccc(C6COC6)cc5)n4)CC3)n(C[C@@H]3CCO3)c2n1
5. N#Cc1ccc(OCc2cccc(OC3CCN(Cc4nc5ccc(C(=O)O)cc5n4C[C@@H]4CCO4)CC3)n2)c(OC(F)(F)F)c1
6. O=C(O)c1ccc2nc(CN3CCC(Oc4cccc(Cc5ccc6cn[nH]c6c5F)n4)CC3)n(C[C@@H]3CCO3)c2n1

# output
-0.70
1.23
0.74
1.75
-0.34
1.67
